# Test system: RANCA
# Protocol: Antiproliferative activity in RCC line RANCA
# Assay type: cell-based
# Applied conditions: Mus musculus; murine RCC line RANCA

Smiles notation	IC50 (nM)
Cc1ccc(C(=O)Nc2ccc(CN3CCN(C)CC3)c(C(F)(F)F)c2)cc1C#Cc1cnc2[nH]ncc2c1	141

###

# System tested: VEGFR3 (Homo sapiens, UniProt P35916)
# Sequence (P35916 25-1363): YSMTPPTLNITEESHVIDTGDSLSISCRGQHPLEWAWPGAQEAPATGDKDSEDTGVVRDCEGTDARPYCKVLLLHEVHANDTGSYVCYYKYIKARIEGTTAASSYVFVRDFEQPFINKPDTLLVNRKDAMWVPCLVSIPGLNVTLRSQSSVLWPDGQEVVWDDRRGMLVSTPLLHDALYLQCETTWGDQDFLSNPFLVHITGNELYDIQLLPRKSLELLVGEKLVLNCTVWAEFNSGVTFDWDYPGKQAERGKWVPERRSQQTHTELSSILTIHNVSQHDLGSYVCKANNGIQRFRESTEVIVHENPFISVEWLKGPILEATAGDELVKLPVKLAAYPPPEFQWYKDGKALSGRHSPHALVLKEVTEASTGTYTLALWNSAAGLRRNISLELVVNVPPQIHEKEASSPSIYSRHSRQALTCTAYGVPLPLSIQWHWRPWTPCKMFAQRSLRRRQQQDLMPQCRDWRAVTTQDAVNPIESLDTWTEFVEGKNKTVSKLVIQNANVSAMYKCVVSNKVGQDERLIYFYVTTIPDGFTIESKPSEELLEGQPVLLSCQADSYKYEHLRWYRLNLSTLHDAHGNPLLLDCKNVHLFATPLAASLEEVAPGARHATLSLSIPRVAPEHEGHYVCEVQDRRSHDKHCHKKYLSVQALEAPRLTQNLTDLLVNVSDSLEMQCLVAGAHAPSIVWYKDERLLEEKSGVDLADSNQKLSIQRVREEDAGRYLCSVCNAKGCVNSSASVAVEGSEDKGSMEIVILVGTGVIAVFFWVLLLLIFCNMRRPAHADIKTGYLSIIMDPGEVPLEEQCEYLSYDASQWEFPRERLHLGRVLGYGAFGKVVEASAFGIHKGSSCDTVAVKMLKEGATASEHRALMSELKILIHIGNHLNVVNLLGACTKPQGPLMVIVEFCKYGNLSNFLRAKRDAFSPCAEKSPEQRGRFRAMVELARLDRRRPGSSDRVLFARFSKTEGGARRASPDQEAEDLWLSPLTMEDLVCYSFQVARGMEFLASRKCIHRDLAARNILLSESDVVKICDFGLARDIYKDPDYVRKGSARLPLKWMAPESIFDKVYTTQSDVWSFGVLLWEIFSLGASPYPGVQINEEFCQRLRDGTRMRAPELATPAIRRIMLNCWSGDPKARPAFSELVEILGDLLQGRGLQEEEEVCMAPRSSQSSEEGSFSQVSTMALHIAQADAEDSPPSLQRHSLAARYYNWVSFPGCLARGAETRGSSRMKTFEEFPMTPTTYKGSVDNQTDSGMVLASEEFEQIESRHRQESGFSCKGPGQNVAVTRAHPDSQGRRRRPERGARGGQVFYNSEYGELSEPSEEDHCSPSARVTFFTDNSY
Readout: IC50 (nM)

Smiles notation	Endpoint result
Cc1ccc(C(=O)Nc2ccc(CN3CCN(C)CC3)c(C(F)(F)F)c2)cc1C#Cc1cnc2[nH]ncc2c1	4.1
